- study_target: Glucagon receptor (Homo sapiens, UniProt P47871)
- Sequence (P47871 whole entry): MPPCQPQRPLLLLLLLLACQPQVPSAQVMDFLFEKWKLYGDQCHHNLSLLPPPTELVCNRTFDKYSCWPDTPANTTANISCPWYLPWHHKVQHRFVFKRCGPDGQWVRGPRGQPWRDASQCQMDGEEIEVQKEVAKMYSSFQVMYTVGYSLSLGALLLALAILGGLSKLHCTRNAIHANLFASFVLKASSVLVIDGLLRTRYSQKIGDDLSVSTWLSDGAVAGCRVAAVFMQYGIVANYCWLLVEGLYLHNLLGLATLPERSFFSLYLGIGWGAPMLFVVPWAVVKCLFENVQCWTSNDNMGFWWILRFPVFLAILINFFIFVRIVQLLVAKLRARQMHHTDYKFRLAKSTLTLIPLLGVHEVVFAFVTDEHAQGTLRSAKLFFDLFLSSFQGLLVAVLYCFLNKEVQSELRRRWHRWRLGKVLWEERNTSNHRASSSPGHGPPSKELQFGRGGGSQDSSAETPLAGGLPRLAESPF
- measurement_protocol: Inhibition of human cloned glucagon receptor expressed in BHK cells
Item-by-item account of IC50
reported_metric: IC50

INSERT INTO assay_data (compound, reported_metric, meas_value) VALUES
  ('O=C(O)CCNC(=O)c1ccc(CN(C(=O)Nc2ccc(OC(F)(F)F)cc2)C2CCC(C(=O)O)CC2)cc1 (stereo not drawn)', 'IC50', '> 10 µM'),
  ('CC(C)(C)C1CCC(N(Cc2ccc(C(=O)NCCCC(=O)O)cc2)C(=O)Nc2ccc(OC(F)(F)F)cc2)CC1 (stereo not drawn)', 'IC50', '> 10 µM'),
  ('O=C(O)CCNC(=O)c1ccc(CN(C(=O)Nc2ccc(OC(F)(F)F)cc2)C2CCC(C(=O)NCC3CC3)CC2)cc1 (stereo not drawn)', 'IC50', '> 10 µM');
